Entries and their measured pIC50 follow.
# test system: hROMK (hKir1.1) (Homo sapiens (Human))
# assay explanation: Thallium Flux Assay (ROMK channel functional thallium flux, FLIPR-Tetra)
# Type: cell-based
# condition context: HEK293 cells stably expressing hROMK (hKir1.1); unit not given in Table 4 (IC50 potencies less than 1 μM); read-out: ROMK TI IC50
Where a name gives a salt, the structure may show the parent alone.
// scale note: pIC50 = -log10(conc_M); give the bare number

Worked examples follow.
INSERT INTO assay_data (compound, assay_endpoint, value_reported) VALUES
  ('Cc1c([C@@H](O)CN2CCC3(CC2)CCN(c2cnc(S(C)(=O)=O)cn2)C3)ccc2c1COC2=O', 'pIC50', 7.36),
  ('Cc1c([C@@H](O)CN2CCC3(CC2)CN(c2ccc(C#N)cn2)C3=O)ccc2c1COC2=O', 'pIC50', 6.43),
  ('Cc1c([C@@H](O)CN2CCC3(CC2)CC(=O)N(c2nnc(S(C)(=O)=O)s2)C3)ccc2c1COC2=O [Example 71, hydrochloride]', 'pIC50', 6.85);

Here is the next item to consider.
Exercise: Request the reported pIC50 associated with C=CCN[C@@H](CN1CCC2(CC1)CCN(c1ccc(C#N)cn1)C2)c1ccc2c(c1C)COC2=O
Key: 7.15

---

# test system: hROMK (hKir1.1) (Homo sapiens (Human), UniProt P48048)
# Sequence (P48048 whole entry): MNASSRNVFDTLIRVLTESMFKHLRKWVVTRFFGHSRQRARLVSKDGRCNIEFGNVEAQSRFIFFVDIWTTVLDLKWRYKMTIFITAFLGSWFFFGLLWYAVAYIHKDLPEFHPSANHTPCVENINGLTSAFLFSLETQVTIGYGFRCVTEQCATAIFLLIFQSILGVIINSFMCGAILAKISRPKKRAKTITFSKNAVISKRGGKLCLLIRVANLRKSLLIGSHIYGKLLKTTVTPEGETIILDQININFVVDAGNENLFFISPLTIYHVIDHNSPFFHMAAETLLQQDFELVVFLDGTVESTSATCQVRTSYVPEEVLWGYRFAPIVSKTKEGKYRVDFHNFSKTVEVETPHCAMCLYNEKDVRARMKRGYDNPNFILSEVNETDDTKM
# assay explanation: Thallium Flux Assay (ROMK channel functional thallium flux, FLIPR-Tetra)
# Format: cell-based
# condition context: HEK293 cells stably expressing hROMK (hKir1.1); unit not given in Table 4 (IC50 potencies less than 1 μM); read-out: ROMK TI IC50
assay endpoint: IC50 (nM)
The response must be a number in nM with no trailing unit.

Worked examples follow.
INSERT INTO results (molecule, test_system, assay_endpoint, value_reported) VALUES
  ('Cc1c([C@@H](O)CN2CCC3(CC2)CCN(c2ccc(C#N)nn2)C3)ccc2c1COC2=O', 'hROMK (hKir1.1) (Homo sapiens (Human), UniProt P48048)', 'IC50', 156),
  ('COc1cc(N2CCC3(CCN(C[C@H](O)c4ccc5c(c4C)COC5=O)CC3)C2=O)ncc1C#N', 'hROMK (hKir1.1) (Homo sapiens (Human), UniProt P48048)', 'IC50', 49.4),
  ('N#Cc1ccc(N2CCC3(CCN(CC(O)c4cc5c(cc4C4CC4)C(=O)OC5)CC3)C2)nc1 (stereo not shown)', 'hROMK (hKir1.1) (Homo sapiens (Human), UniProt P48048)', 'IC50', 74.4);

Exercise: // lookup IC50 | system=hROMK (hKir1.1) (Homo sapiens (Human), UniProt P48048) | key= Cc1c([C@@H](O)CN2CCC3(CC2)CCN(c2ccc(C#N)nc2)C3)ccc2c1COC2=O
Key: 88.7

---

Entries and their measured IC50 follow.
# test system: hROMK (hKir1.1) (Homo sapiens (Human), UniProt P48048)
# assay explanation: Thallium Flux Assay (ROMK channel functional thallium flux, FLIPR-Tetra)
# Format: cell-based
# condition context: HEK293 cells stably expressing hROMK (hKir1.1); unit not given in Table 4 (IC50 potencies less than 1 μM); read-out: ROMK TI IC50
Where a name gives a salt, the structure may show the parent alone.
The response must be a number in nM with no trailing unit.

Worked examples follow.
INSERT INTO measurements (molecule, test_system, unit_info, value_reported) VALUES
  ('CCS(=O)(=O)c1cnc(N2CCC3(CCN(C[C@H](O)c4ccc5c(c4C)COC5=O)CC3)C2)cn1 [Example 63, hydrochloride]', 'hROMK (hKir1.1) (Homo sapiens (Human), UniProt P48048)', 'nM', 83.2),
  ('C[C@@H]1Cc2cc(C(O)CN3CCC4(CC3)CN(c3ccc(C#N)cn3)C4)ccc2C(=O)O1 (stereo partly drawn) [Example 52B]', 'hROMK (hKir1.1) (Homo sapiens (Human), UniProt P48048)', 'nM', 69.9),
  ('Cc1c([C@@H](O)CN2CCC3(CC2)CN(c2ccc(S(C)(=O)=O)cn2)C3)ccc2c1COC2=O', 'hROMK (hKir1.1) (Homo sapiens (Human), UniProt P48048)', 'nM', 220),
  ('Cc1c([C@@H](O)CN2CCC3(CC2)CN(c2ccc(C#N)cn2)C3)ccc2c1COC2=O', 'hROMK (hKir1.1) (Homo sapiens (Human), UniProt P48048)', 'nM', 104);

Exercise: Request the reported IC50 associated with N#Cc1ccc(N2CCC3(CCN(CC4OCCc5c4ccc4c5COC4=O)CC3)C2)nc1 (stereo not drawn)
Key: 103

Exercise: Now this one: Cc1c([C@@H](O)CN2CCC3(CC2)OCCN(c2ccc(S(C)(=O)=O)cn2)C3=O)ccc2c1COC2=O
Key: 187

Exercise: Now this one: Cc1c([C@@H](O)CN2CCC3(CC2)CCN(c2ccc(C#N)cn2)C3=O)ccc2c1COC2=O
Key: 37

Exercise: Now this one: Cc1nc(N2CCC3(CCN(CC(O)c4ccc5c(c4C)COC5=O)CC3)CC2)ccc1C#N (stereo not drawn)
Key: 136

Exercise: Now this one: Cc1c([C@@H](O)CN2CCC3(CCN(c4ncc(-n5cnnn5)cn4)CC3)C2)ccc2c1COC2=O
Key: 262

Exercise: Now this one: Cc1c([C@@H](O)CN2CCC3(CC2)CCN(c2cc(C#N)ccn2)C3)ccc2c1COC2=O
Key: 26

Exercise: Now this one: CC1=CS(=O)(=O)c2ccc(N3CCC4(CCN(C[C@H](O)c5ccc6c(c5C)COC6=O)CC4)C3)cc21
Key: 353

Exercise: Now this one: Cc1cc(N2CCC3(CCN(C[C@H](O)c4ccc5c(c4C)COC5=O)CC3)C2)cnc1S(C)(=O)=O
Key: 135

Exercise: Now this one: Cc1c([C@@H](O)CN2CCC3(CC2)CCN(c2ccc(S(C)(=O)=O)cc2)C3=O)ccc2c1COC2=O [Example 75, hydrochloride]
Key: 85.2

Exercise: Now this one: Cc1cc(N2CCC3(CCN(C[C@H](O)c4ccc5c(c4C)COC5=O)CC3)C2)cnc1C#N
Key: 10.1

Exercise: Now this one: Cc1c([C@@H](O)CN2CCC3(CC2)CC(=O)N(c2cnc(S(C)(=O)=O)cn2)C3)ccc2c1COC2=O
Key: 74.2

---

Entries and their measured IC50 follow.
# test system: hROMK (hKir1.1) (Homo sapiens (Human))
# assay explanation: Thallium Flux Assay (ROMK channel functional thallium flux, FLIPR-Tetra)
# Type: cell-based
# condition context: HEK293 cells stably expressing hROMK (hKir1.1); unit not given in Table 4 (IC50 potencies less than 1 μM); read-out: ROMK TI IC50
Structures can show the parent of a compound that is named as a salt.
The response must be a number in nM with no trailing unit.

Worked examples follow.
INSERT INTO assay_data (compound, unit_info, value_reported) VALUES
  ('Cc1c(C(O)CN2CCC3(CC2)CCN(c2ncccc2C#N)CC3)ccc2c1COC2=O (stereo not shown) [Example 107]', 'nM', 180),
  ('Cc1c([C@@H](O)CN2CCC3(CC2)CC(=O)N(c2ccc(S(C)(=O)=O)c(F)c2)C3)ccc2c1COC2=O [Example 67, hydrochloride]', 'nM', 68),
  ('Cc1c([C@@H](O)CN2CCC3(CC2)CCN(c2ncc(S(C)(=O)=O)cn2)C3)ccc2c1COC2=O [Example 41]', 'nM', 101);

Here is the next item to consider.
Exercise: Request the reported IC50 associated with Cc1c(C(O)CN2CCC3(CC2)CCN(c2nccnc2C#N)CC3)ccc2c1COC2=O (stereo not shown) [Example 110]
Key: 135

---

Entries and their measured log10 of IC50 follow.
# test system: hROMK (hKir1.1) (Homo sapiens (Human), UniProt P48048)
# assay explanation: Thallium Flux Assay (ROMK channel functional thallium flux, FLIPR-Tetra)
# Type: cell-based
# condition context: HEK293 cells stably expressing hROMK (hKir1.1); unit not given in Table 4 (IC50 potencies less than 1 μM); read-out: ROMK TI IC50
Please interpret these as log10 of IC50 where IC50 is in nM.

Worked examples follow.
INSERT INTO measurements (molecule, value_reported) VALUES
  ('Cc1c([C@H](O)CN2CCC3(CC2)CCN(c2ccc(S(C)(=O)=O)cn2)C3)ccc2c1COC2=O', 2.53),
  ('Cc1c(C(O)CN2CCC3(CC2)CCN(c2ncc(C#N)cn2)CC3)ccc2c1COC2=O (stereo not shown)', 1.16),
  ('Cc1cc2c(cc1C(O)CN1CCC3(CC1)CCN(c1ccc(C#N)cn1)C3)COC2=O (single isomer, unassigned) [Example 24B]', 1.50);

Exercise: Request the reported log10 of IC50 associated with COc1cc(N2CC3(CCN(C[C@H](O)c4ccc5c(c4C)COC5=O)CC3)CC2=O)ncc1C#N
Key: 1.52

Exercise: Now this one: Cc1c([C@@H](O)CN2CCC3(CC2)CCN(c2cccc(C#N)c2)C3)ccc2c1COC2=O
Key: 2.07

Exercise: Now this one: Cc1c([C@@H](O)CN2CCC3(CC2)CCN(c2ccc(S(C)(=O)=O)cn2)C3)ccc2c1COC2=O
Key: 1.61

Exercise: Now this one: Cc1c([C@@H](O)CN2CCC3(CC2)CCN(c2ccc(S(C)(=O)=O)cn2)C3=O)ccc2c1COC2=O
Key: 1.93

// provenance: patent US9751881B2
